# TESTED_ON: human Factor IXa (human, UniProt P00740 47-191; P00740 227-461)
# ASSAY_DETAILS: cell-based or functional assay
Square brackets hold non-standard residues; d marks the D form. Primed or numbered codes have the meaning given here. Side chains are listed from the residue outwards. Ends that are not written are not given here. * marks the point of attachment. Biotin = O=C1N[C@H]2[C@H](CS[C@H]2CCCCC(=O)*)N1; PEG2(3) = PEG2 spacer carrying biotin on Lys; NMeY = CN[C@@H](Cc1ccc(O)cc1)C(=O)O; NMeL = CN[C@@H](CC(C)C)C(=O)O; Orn = NCCC[C@H](N)C(=O)O
TEST_READOUT: EC50 [µM], FXa generation assay

[
  {
    "BINDER": "SKQGRPISSD[dR]RASGKLTCLASYCWLFWTGIA (not fully specified; printed as SKQGRPISSDrRASGKLTCLASYCWLFWTGIA; cysteine pairing not given here) [SKQGRPISSDrRASGKLTCLASYCWLFWTGIA]",
    "TEST_READOUT": "EC50 [µM], FXa generation assay",
    "OBSERVED_RESULT": "< 0.5 µM"
  },
  {
    "BINDER": "RRAKGKLQCLASYCWLFWTGIA",
    "TEST_READOUT": "EC50 [µM], FXa generation assay",
    "OBSERVED_RESULT": "> 1 µM"
  },
  {
    "BINDER": "KLTXLASYCWLF (not fully specified; Pen 4) [KLT-Pen-LASYCWLF]",
    "TEST_READOUT": "EC50 [µM], FXa generation assay",
    "OBSERVED_RESULT": "> 20 µM"
  },
  {
    "BINDER": "RGRSAKLRCLASYCWLFFGVIL",
    "TEST_READOUT": "EC50 [µM], FXa generation assay",
    "OBSERVED_RESULT": "< 0.5 µM"
  },
  {
    "BINDER": "QWQIAGQVLKRRAPAKLTCLASYCWLFWTGIA [QWQIAGQVLKRRAPA KLTCLASYCWLFWTGIA]",
    "TEST_READOUT": "EC50 [µM], FXa generation assay",
    "OBSERVED_RESULT": "< 0.5 µM"
  },
  {
    "BINDER": "Ac-K[dK][NMeL]TCLASYCWLF (cysteine pairing not given here) [Ac-K-k-MeLeu-TCLASYCWLF]",
    "TEST_READOUT": "EC50 [µM], FXa generation assay",
    "OBSERVED_RESULT": "< 0.5 µM"
  },
  {
    "BINDER": "RRAPGKLTCLASYCWLFWTGK([PEG2(3)-Biotin])A (not fully specified (C-terminus); printed as RRAPGKLTCLASYCWLFWTGK(PEG2-Biotin)A; cysteine pairing not given here) [RRAPGKLTCLASYCWLFWTGK(PEG2-Biotin)A]",
    "TEST_READOUT": "EC50 [µM], FXa generation assay",
    "OBSERVED_RESULT": "< 0.5 µM"
  },
  {
    "BINDER": "RRAPGKLTCLASYCWLFWTTWTTAPTTPPLTT [RRAPGKLTCLASYCWLF WTTWT TAPTTPPLTT]",
    "TEST_READOUT": "EC50 [µM], FXa generation assay",
    "OBSERVED_RESULT": "< 0.5 µM"
  },
  {
    "BINDER": "KLTCLASYCWLF (Lys(Me)2 1) [Lys(Me)2-LTCLASYCWLF]",
    "TEST_READOUT": "EC50 [µM], FXa generation assay",
    "OBSERVED_RESULT": "> 1 µM"
  },
  {
    "BINDER": "KLTCLA[dS]YCWLF (cysteine pairing not given here) [KLTCLAsYCWLF]",
    "TEST_READOUT": "EC50 [µM], FXa generation assay",
    "OBSERVED_RESULT": "> 1 µM"
  },
  {
    "BINDER": "[dR]RAAGKLTCLASYCWLAATGIA (not fully specified (C-terminus); printed as rRAAGKLTCLASYCWLAATGIA; cysteine pairing not given here) [rRAAGKLTCLASYCWLAATGIA]",
    "TEST_READOUT": "EC50 [µM], FXa generation assay",
    "OBSERVED_RESULT": "> 10 µM"
  },
  {
    "BINDER": "KLT[Orn]LASYEWLF-OH (N-terminus assumed; SMILES CC(C)C[C@H](NC(=O)[C@H](CCCN)NC(=O)[C@@H](NC(=O)[C@H](CC(C)C)NC(=O)[C@@H](N)CCCCN)[C@@H](C)O)C(=O)N[C@@H](C)C(=O)N[C@@H](CO)C(=O)N[C@@H](Cc1ccc(O)cc1)C(=O)N[C@@H](CCC(=O)O)C(=O)N[C@@H](Cc1c[nH]c2ccccc12)C(=O)N[C@@H](CC(C)C)C(=O)N[C@@H](Cc1ccccc1)C(=O)O) [KLT-Orn-LASY-Glu-WLF-COOH]",
    "TEST_READOUT": "EC50 [µM], FXa generation assay",
    "OBSERVED_RESULT": "< 0.5 µM"
  },
  {
    "BINDER": "SKQGRPISPD[dR]RAAGKLTCLASYCWLFW (not fully specified; printed as SKQGRPISPDrRAAGKLTCLASYCWLFW; cysteine pairing not given here) [SKQGRPISPDrRAAGKLTCLASYCWLFW]",
    "TEST_READOUT": "EC50 [µM], FXa generation assay",
    "OBSERVED_RESULT": "< 0.5 µM"
  },
  {
    "BINDER": "PRIRTVGPGSRSASGKLTCAASYCWLFWTGIA",
    "TEST_READOUT": "EC50 [µM], FXa generation assay",
    "OBSERVED_RESULT": "> 1 µM"
  },
  {
    "BINDER": "GRAMAAEPWPRQAPGKLTCLASYCWLFWTGIA [GRAMAAEPWP RQAPG KLTCLASYCWLFWTGIA]",
    "TEST_READOUT": "EC50 [µM], FXa generation assay",
    "OBSERVED_RESULT": "< 0.5 µM"
  },
  {
    "BINDER": "RRAPGKLQCLASYCWLFW",
    "TEST_READOUT": "EC50 [µM], FXa generation assay",
    "OBSERVED_RESULT": "> 1 µM"
  },
  {
    "BINDER": "RRAPGKLCALASYCWLFWTGIA-OH (cysteine pairing not given here) [RRAPGKLCALASYCWLFWTGIA-COOH]",
    "TEST_READOUT": "EC50 [µM], FXa generation assay",
    "OBSERVED_RESULT": "> 1 µM"
  },
  {
    "BINDER": "SKQGRPISPD[dR]RAAGKLTCLAS[NMeY]CWLFWTGIA (not fully specified; cysteine pairing not given here) [SKQGRPISPDrRAAGKLTCLAS-NMeTyr-CWLFWTGIA]",
    "TEST_READOUT": "EC50 [µM], FXa generation assay",
    "OBSERVED_RESULT": "> 10 µM"
  },
  {
    "BINDER": "EGRRDKLTCLASYCWLVGHGQH",
    "TEST_READOUT": "EC50 [µM], FXa generation assay",
    "OBSERVED_RESULT": "> 25 µM"
  },
  {
    "BINDER": "RRAPGKLTCLASYCWLFWTGIARWPSHRSGPS (not fully specified (C-terminus); cysteine pairing not given here) [RRAPGKLTCLASYCWLF WTGIA RWPSHRSGPS]",
    "TEST_READOUT": "EC50 [µM], FXa generation assay",
    "OBSERVED_RESULT": "> 1 µM"
  },
  {
    "BINDER": "KLTCRASYCQLF",
    "TEST_READOUT": "EC50 [µM], FXa generation assay",
    "OBSERVED_RESULT": "> 1 µM"
  },
  {
    "BINDER": "KLTCLATYCWLF",
    "TEST_READOUT": "EC50 [µM], FXa generation assay",
    "OBSERVED_RESULT": "> 1 µM"
  }
]

Measured values drawn from patent US20140303084A1 for this set.
